# System: P. aeruginosa PAO1 biofilms
# EXPERIMENTAL CONTEXT: read-out: Biofilm Inhibition IC50; PAO1, 24 hours, crystal violet
pIC50: −log10 of the molar value. Where a SMILES comes first, the peptide text is derived from it. [ ]: non-standard residue; d: D form.
QUANTITY NAME: pIC50

* CC[C@@H](C)[C@@H](NC(=O)[C@@H](C)NC(=O)[C@@H](CCCNC(=N)N)NC(=O)[C@@H](Cc1c[nH]c2ccccc12)NC(=O)[C@@H](CCC(N)=O)NC(=O)[C@H](NC(=O)[C@@H](CCCNC(=N)N)NC(=O)[C@H](NC(=O)[C@H](NC(=O)[C@@H](CCCNC(=N)N)NC(=O)[C@H](NC(=O)[C@H](N)CCCNC(=N)N)C(C)C)C(C)C)[C@H](C)CC)C(C)C)C(N)=O [AB103-D, rvrvirvqwrai-NH2] (H-[dR][dV][dR][dV][dI][dR][dV][dQ][dW][dR][dA][dI]-NH2) | 5.72
* CC[C@@H](C)[C@@H](NC(=O)[C@@H](CCCNC(=N)N)NC(=O)[C@H](N)CCCCN)C(=O)N[C@H](CCCNC(=N)N)C(=O)N[C@H](Cc1c[nH]c2ccccc12)C(=O)N[C@@H](C(=O)N[C@@H](C(=O)N[C@H](CC(C)C)C(=O)N[C@H](CCCNC(=N)N)C(=O)N[C@@H](C(=O)N[C@@H](C(=O)N[C@H](CCCNC(=N)N)C(N)=O)[C@H](C)CC)C(C)C)[C@H](C)CC)C(C)C [AB101-D, krirwvilrvir-NH2] (H-[dK][dR][dI][dR][dW][dV][dI][dL][dR][dV][dI][dR]-NH2) | 5.96
* CC[C@@H](C)[C@@H](NC(=O)[C@@H](CCCNC(=N)N)NC(=O)[C@@H](CCCCN)NC(=O)[C@@H](CCCNC(=N)N)NC(=O)[C@H](NC(=O)[C@H](NC(=O)[C@@H](CCCNC(=N)N)NC(=O)[C@H](NC(=O)[C@H](N)CCCNC(=N)N)C(C)C)C(C)C)[C@H](C)CC)C(=O)N[C@H](CCCNC(=N)N)C(=O)N[C@H](Cc1c[nH]c2ccccc12)C(=O)N[C@@H](C(N)=O)C(C)C [AB102-D, rvrvirkrirwv-NH2] (H-[dR][dV][dR][dV][dI][dR][dK][dR][dI][dR][dW][dV]-NH2) | 4.78

Hey, just so you know, these numbers are from patent US20260374818A1.
